# ASSAY DETAILS: Absorption in percutaneously dosed healthy human at 1166 mg
# Type: ADME, organism-based
# EXPERIMENTAL CONDITIONS: in vivo, topical or ocular, read-out: Activity
READOUT KIND: Fa (%)
One number for each entry, in %.

Qu. May I ask what Fa has been recorded for Oc1cc(Cl)ccc1Oc1ccc(Cl)cc1Cl [TRICLOSAN] ?
Ans. 5.9
